meta.source: patent US20250313548A1

# study.system: human, KCNT1 (Homo sapiens (Human), UniProt Q5JUK3)
# Sequence (Q5JUK3 whole entry): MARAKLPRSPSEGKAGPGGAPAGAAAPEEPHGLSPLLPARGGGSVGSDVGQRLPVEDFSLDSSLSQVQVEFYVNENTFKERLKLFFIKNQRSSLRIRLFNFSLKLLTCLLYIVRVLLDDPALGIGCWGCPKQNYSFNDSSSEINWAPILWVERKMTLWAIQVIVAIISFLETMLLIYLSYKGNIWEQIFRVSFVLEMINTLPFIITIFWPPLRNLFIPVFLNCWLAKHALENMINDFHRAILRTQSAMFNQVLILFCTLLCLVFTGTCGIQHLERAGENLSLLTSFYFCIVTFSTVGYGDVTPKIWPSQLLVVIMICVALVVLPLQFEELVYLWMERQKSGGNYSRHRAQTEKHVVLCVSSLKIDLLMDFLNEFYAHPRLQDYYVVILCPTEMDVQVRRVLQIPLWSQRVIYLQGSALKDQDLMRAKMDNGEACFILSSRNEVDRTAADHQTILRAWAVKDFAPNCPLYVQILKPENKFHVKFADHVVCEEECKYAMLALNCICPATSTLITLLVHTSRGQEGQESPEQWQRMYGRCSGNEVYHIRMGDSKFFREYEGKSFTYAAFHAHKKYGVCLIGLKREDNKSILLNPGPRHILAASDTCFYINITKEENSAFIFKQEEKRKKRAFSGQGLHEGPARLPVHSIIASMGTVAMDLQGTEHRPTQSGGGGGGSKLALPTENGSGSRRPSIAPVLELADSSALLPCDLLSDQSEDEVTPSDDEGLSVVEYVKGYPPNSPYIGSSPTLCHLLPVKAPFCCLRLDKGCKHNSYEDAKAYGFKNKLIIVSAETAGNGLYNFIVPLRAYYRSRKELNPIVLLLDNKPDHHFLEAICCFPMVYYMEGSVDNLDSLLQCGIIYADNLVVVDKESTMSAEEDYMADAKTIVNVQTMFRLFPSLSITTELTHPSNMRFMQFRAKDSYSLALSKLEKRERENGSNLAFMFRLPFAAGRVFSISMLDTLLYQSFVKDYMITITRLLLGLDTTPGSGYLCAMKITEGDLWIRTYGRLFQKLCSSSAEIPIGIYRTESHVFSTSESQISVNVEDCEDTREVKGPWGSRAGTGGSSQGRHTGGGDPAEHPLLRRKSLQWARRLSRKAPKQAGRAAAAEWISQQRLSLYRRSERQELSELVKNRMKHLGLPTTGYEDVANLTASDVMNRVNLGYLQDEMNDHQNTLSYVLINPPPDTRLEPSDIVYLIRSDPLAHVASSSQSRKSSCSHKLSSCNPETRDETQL
# procedure.details: FLIPR Tl/K Flux Assay
# conditions: HEK293 cells stably expressing human KCNT1; Tl+ flux stimulated with EC80 of agonist Loxapine
Here, each record is paired with measured IC50 data.
reported.property: IC50

>>> assay_result("Cc1cnc(C(F)(F)F)cc1-c1cc2n(n1)CC[C@H]2NC(=O)c1cc(C(F)(F)F)nn1C [Compound I-472b]")
"> 1000 nM"
>>> assay_result("Cc1nc(C(=O)N[C@H]2CCCc3oc(-c4ccnc(C5CC5)c4)nc32)n(C)n1 [Compound I-227a]")
"> 1000 nM"
>>> assay_result("COc1cc(C(=O)N[C@H]2CCCn3nc(-c4ccnc(C(F)(F)F)c4)nc32)ccn1 [Compound I-214a]")
"< 250 nM"
>>> assay_result("O=C(N[C@H]1CCCn2nc(-c3ccnc(C(F)(F)F)c3)cc21)c1cccc(C(F)(F)F)c1F [Compound I-419a]")
"< 250 nM"
>>> assay_result("N#Cc1cc(C(=O)N[C@H]2CCCn3nc(-c4ccnc(C(F)(F)F)c4)cc32)ccc1F [Compound I-343a]")
"< 250 nM"
>>> assay_result("Cn1nc(C(F)(F)F)cc1C(=O)N[C@H]1CCCc2cnc(-c3ccnc(C(F)(F)F)c3)nc21 [Compound I-452a]")
"250 to 500 nM"
>>> assay_result("Cn1nc(C(F)(F)F)cc1C(=O)N[C@H]1CCCn2nc(-c3ccnc(C4CC4)c3)nc21 [Compound I-201a]")
"< 250 nM"

###

# study.system: human, KCNT1 (Homo sapiens (Human), UniProt Q5JUK3)
# procedure.details: FLIPR Tl/K Flux Assay
# conditions: HEK293 cells stably expressing human KCNT1; Tl+ flux stimulated with EC80 of agonist Loxapine
Here, each record is paired with measured IC50 data.
reported.property: IC50

>>> assay_result("O=C(N[C@H]1CCCCc2nn(-c3ccnc(C(F)(F)F)c3)cc21)c1cc(Cl)cc(C(F)(F)F)c1 (single isomer, unassigned) [Compound I-109a]")
"< 0.25 µM"
>>> assay_result("CCOc1cc(-n2cc3c(n2)CCCC3NC(=O)c2ccccc2)ccn1 (centres unmarked)")
"> 1 µM"
>>> assay_result("Cn1cc(C(F)(F)F)nc1C(=O)NC1CCCc2nn(-c3ccnc(C(F)(F)F)c3)cc21 (racemic)")
"0.5 to 1 µM"
>>> assay_result("O=C(N[C@H]1CCCc2nc(-c3ccnc(C(F)(F)F)c3)oc21)c1cccc(C(F)(F)F)c1 [Compound I-188a]")
"< 0.25 µM"
>>> assay_result("CC(F)(F)c1cc(-c2nc3c(o2)CCC[C@@H]3NC(=O)c2cccc(F)c2)ccn1 [Compound I-508a]")
"< 0.25 µM"
>>> assay_result("N#Cc1cc(OC(F)(F)F)cc(C(=O)N[C@H]2CCCn3nc(-c4ccnc(C(F)(F)F)c4)cc32)c1 [Compound I-404a]")
"< 0.25 µM"
>>> assay_result("Cn1nc(C(F)(F)F)cc1C(=O)N[C@@H]1CCc2nn(-c3ccnc(C4CCC4)c3)cc21 [Compound I-72b]")
"> 1 µM"
>>> assay_result("Cc1cnc(C(F)(F)F)cc1-n1cc2c(n1)CC[C@@H]2NC(=O)c1cccc(C#N)c1 [Compound I-235a]")
"< 0.25 µM"
>>> assay_result("O=C(N[C@H]1CCCn2nc(-c3ccnc(C(F)(F)F)c3)cc21)c1cc(Cl)cc(C(F)(F)F)c1 [Compound I-352a]")
"< 0.25 µM"
>>> assay_result("O=C(N[C@H]1CCn2nc(-c3ccnc(C(F)(F)F)c3)cc21)c1ccnc(OC(F)(F)F)c1 [Compound I-198a]")
"< 0.25 µM"
>>> assay_result("CC(C)(C)OC(=O)N[C@@H]1CCc2nn(-c3ccnc(C(F)(F)F)c3)cc21 [Compound I-105b]")
"> 1 µM"
>>> assay_result("COc1cc(-c2nc3c(o2)CCC[C@@H]3NC(=O)c2cc(C)cc(C(F)(F)F)c2)ccn1 [Compound I-248a]")
"< 0.25 µM"
>>> assay_result("Cn1nc(C(F)(F)F)cc1C(=O)N[C@H]1CCn2nc(-c3ccnc(C4CC4)c3)cc21 [Compound I-68a]")
"< 0.25 µM"
>>> assay_result("Cn1nc(C(F)(F)F)cc1C(=O)N[C@H]1CCCc2nn(-c3ccnc(C(F)(F)F)c3)cc21")
"< 0.25 µM"
>>> assay_result("O=C(N[C@H]1CCCn2nc(-c3ccnc(C(F)(F)F)c3)cc21)c1cnc(C(F)(F)F)cn1 [Compound I-582a]")
"< 0.25 µM"
>>> assay_result("N#Cc1cccc(C(=O)NC2CCCCC3OC(c4ccnc(C(F)(F)F)c4)=NC23)c1 (centres unmarked)")
"< 0.25 µM"
>>> assay_result("Cn1nc(C(F)(F)F)cc1C(=O)N[C@H]1CCc2nn(-c3cc(C4CC4)ncc3F)cc21 [Compound I-190a]")
"< 0.25 µM"
>>> assay_result("O=C(N[C@H]1CCCn2nc(-c3ccnc(C(F)(F)F)c3)cc21)c1nc2ccccn2n1 [Compound I-422a]")
"> 1 µM"
>>> assay_result("Cn1nc(C2CC2)cc1C(=O)NC1CCCc2nn(-c3ccnc(C(F)(F)F)c3)cc21 (racemic)")
"0.25 to 0.5 µM"
>>> assay_result("O=C(N[C@H]1CCn2nc(-c3cc(C4CC4)ncc3F)cc21)C12CC(C(F)(F)F)(C1)C2 [Compound I-559a]")
"< 0.25 µM"
>>> assay_result("N#Cc1cccc(C(=O)N[C@H]2CCn3nc(-c4ccnc(C5CC5)c4)cc32)c1 [Compound I-310a]")
"< 0.25 µM"
>>> assay_result("O=C(N[C@H]1CCCn2nc(-c3ccnc(C(F)(F)F)c3)cc21)c1cn(C(F)(F)F)nc1C(F)(F)F [Compound I-338a]")
"< 0.25 µM"
>>> assay_result("COc1cc(C(=O)N[C@H]2CCn3nc(-c4cc(C(F)(F)F)ncc4F)cc32)ccn1 [Compound I-145a]")
"< 0.25 µM"
>>> assay_result("Cn1nc(OC2CC2)cc1C(=O)N[C@H]1CCCn2nc(-c3ccnc(C(F)(F)F)c3)cc21 [Compound I-370a]")
"< 0.25 µM"
>>> assay_result("Cn1nc(C(F)(F)F)cc1C(=O)N[C@H]1CCCCc2nn(-c3ccnc(C4CC4)c3)cc21 [Compound I-56a]")
"< 0.25 µM"
>>> assay_result("Cn1nc(C(C)(F)F)cc1C(=O)NC1CCCc2nn(-c3ccnc(C(F)(F)F)c3)cc21 (racemic)")
"< 0.25 µM"
>>> assay_result("Cn1nc(C2CC2)nc1C(=O)N[C@H]1CCn2nc(-c3ccnc(C(F)(F)F)c3)cc21 [Compound I-224a]")
"< 0.25 µM"
>>> assay_result("COc1cc(-c2nc3c(o2)[C@@H](NC(=O)c2cccc(OC(F)(F)F)c2)CCC3)c(F)cn1 [Compound I-176a]")
"< 0.25 µM"
>>> assay_result("N#Cc1cccc(C(=O)NC2CCCCC3NC(c4ccnc(C(F)(F)F)c4)=NC23)c1 (centres unmarked)")
"> 1 µM"

###

# study.system: UniProt:Q5JUK3
# procedure.details: FLIPR Tl/K Flux Assay
# conditions: HEK293 cells stably expressing human KCNT1; Tl+ flux stimulated with EC80 of agonist Loxapine
pIC50: −log10 of the molar value.
reported.property: pIC50

>>> assay_result("Cc1nc(C(F)(F)F)sc1C(=O)N[C@H]1CCCn2nc(-c3ccnc(C(F)(F)F)c3)cc21 [Compound I-358a]")
"> 6.60"
>>> assay_result("COc1cc(-c2cc3n(n2)CCCC[C@@H]3NC(=O)c2cccc(C#N)c2)ccn1 [Compound I-456a]")
"> 6.60"
>>> assay_result("Cc1cc(C(=O)N[C@H]2CCCn3nc(-c4ccnc(C(F)(F)F)c4)cc32)cc(C)n1 [Compound I-414a]")
"> 6.60"
>>> assay_result("Cc1c(C(F)(F)F)nn(C)c1C(=O)N[C@H]1CCc2nn(-c3ccnc(C(F)(F)F)c3)cc21 [Compound I-386a]")
"< 6.00"
>>> assay_result("O=C(NC1CCc2cnc(-c3ccnc(C(F)(F)F)c3)cc21)c1cc(F)cc(F)c1 (stereo not drawn) [Compound I-478]")
"> 6.60"
>>> assay_result("N#Cc1cc(F)cc(C(=O)N[C@H]2CCn3nc(-c4ccnc(C5CC5)c4)cc32)c1 [Compound I-300a]")
"> 6.60"
>>> assay_result("Cc1ccccc1C(=O)N[C@@H]1CCc2nn(-c3ccnc(C(F)(F)F)c3)cc21 [Compound I-92b]")
"< 6.00"
>>> assay_result("COc1cc(C#N)cc(C(=O)N[C@H]2CCn3nc(-c4ccnc(C(F)(F)F)c4)cc32)c1 [Compound I-258a]")
"> 6.60"
>>> assay_result("O=C(N[C@@H]1CCCCc2nn(-c3ccnc(C4CC4)c3)cc21)c1cccc(C(F)(F)F)c1 [Compound I-60b]")
"6.00 to 6.30"
>>> assay_result("O=C(N[C@H]1CCCCn2nc(-c3ccnc(C(F)(F)F)c3)cc21)c1cc(Cl)cc(C(F)(F)F)c1 [Compound I-387a]")
"> 6.60"
>>> assay_result("Cc1cc(-c2cc3n(n2)CCC[C@@H]3NC(=O)c2cc(C(F)(F)F)nn2C)cc(C(F)(F)F)n1 [Compound I-432a]")
"> 6.60"
>>> assay_result("COc1cc(-c2cc3n(n2)CCC[C@@H]3NC(=O)c2ccnc(C(F)(F)F)c2)ccn1 [Compound I-364a]")
"> 6.60"
>>> assay_result("O=C(N[C@H]1CCc2cnc(-c3ccnc(C(F)(F)F)c3)cc21)c1cc2cccnn2c1 [Compound I-340a]")
"< 6.00"
>>> assay_result("CC(C)(O)c1cc(F)cc(C(=O)N[C@H]2CCCn3nc(-c4ccnc(C(F)(F)F)c4)cc32)c1 [Compound I-581a]")
"> 6.60"
>>> assay_result("O=C(N[C@H]1CCCc2nc(-c3cc(C4CC4)ncc3F)oc21)c1cccc(C(F)(F)F)c1 [Compound I-165a]")
"> 6.60"
